- Read-out: Tissue plasminogen activator (tPA), PLAT (gene 5327)
- EXPERIMENTAL DETAILS: BSK_BE3C_tPA: BioMAP Diversity Plus: BE3C Assay for Tissue plasminogen activator (tPA) Biomarker Activity (AID 2283041);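 as to outcome: tPA level quantified by ELISA one day after compound addition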
- CONDITIONS: primary human bronchial epithelial cells; actives raise or lower the signal
The source made the active and inactive calls. The calls were made as follows: active = hit-call score of the fitted dose curve at least 0.9, where 1 is the maximum; inactive = score below 0.9.
Entry note: the call must match one of active, inactive

[Q] Name the outcome recorded for OCC(F)(F)OC(F)(F)C(F)(F)OC(F)(F)C(F)(F)OC(F)(F)F in the assay.
[A] inactive

[Q] Could you please tell me the result logged for c1ccc2c(c1)Nc1ccccc1S2 in this assay?
[A] inactive

[Q] What did the test return for CCCN(CCC)c1c([N+](=O)[O-])cc(C(C)C)cc1[N+](=O)[O-] ?
[A] inactive

[Q] Kindly provide the recorded test outcome for the following compound: ClC(Cl)(Cl)c1ccccc1
[A] inactive

[Q] Please let me know the test result on file for [N-]=[N+]=[N-] .
[A] inactive

[Q] For this compound, state the assay outcome: Cc1c([N+](=O)[O-])cc2c(c1[N+](=O)[O-])C(C)(C)CC2(C)C
[A] active

[Q] Given O=C(O)C(F)(F)OC(F)(F)C(F)(F)OC(F)(F)C(=O)O , state the outcome it received in this test.
[A] inactive

[Q] Outcome logged for c1cc2c3c(cccc3c1)CC2 in this assay:
[A] inactive

[Q] Outcome logged for CCOP(=S)(Oc1ccc([N+](=O)[O-])cc1)c1ccccc1 (stereo unspecified) in this assay:
[A] active

[Q] What call does the record list for OCC(F)(F)OC(F)(F)C(F)(F)OC(F)(F)CO ?
[A] inactive

[Q] Short answer needed: outcome of this test for O=C(O)C(Cl)Cl ?
[A] inactive

[Q] Each compound tested received a call. Report the one for O=S1(=O)OCC2C(CO1)C1(Cl)C(Cl)=C(Cl)C2(Cl)C1(Cl)Cl (stereo unspecified) .
[A] inactive

[Q] I would be grateful if you could indicate the recorded call for CCNc1nc(Cl)nc(NC(C)(C)C)n1 .
[A] inactive

[Q] Call for entry O=P(OCC(Br)CBr)(OCC(Br)CBr)OCC(Br)CBr (stereo unspecified) :
[A] inactive

[Q] Any idea what this test logged for O=P(Oc1ccccc1)(Oc1ccccc1)Oc1ccccc1 ?
[A] inactive

[Q] Record lookup: outcome of this test for O=C(O)C(F)(F)C(F)(F)C(=O)O ?
[A] inactive

[Q] Kindly provide the recorded test outcome for the following compound: c1nc[nH]n1
[A] inactive

[Q] Status in this test for Nc1cc2c3c(c1)C(c1ccccc1)=N[C@@H](NC(=O)c1cccnc1)C(=O)N3CC2 ?
[A] inactive

[Q] I'd appreciate the recorded outcome for CCOP(=S)(NC(C)C)Oc1ccccc1C(=O)OC(C)C (stereo unspecified) from this test.
[A] inactive

[Q] Hi, sorry to bother you, what did the test record for CCCCOCCOP(=O)(OCCOCCCC)OCCOCCCC ?
[A] inactive

[Q] Can you look up the reported call for CC(C)(C)c1ccccc1OP(=O)(Oc1ccccc1)Oc1ccccc1 for me?
[A] inactive

[Q] For this compound, state the assay outcome: c1ccc(OP(Oc2ccccc2)Oc2ccccc2)cc1
[A] inactive

[Q] Call for entry Cc1ccc([N+](=O)[O-])cc1C :
[A] inactive

[Q] What outcome does the record of this test show for ClC(Cl)=C(c1ccc(Cl)cc1)c1ccccc1Cl ?
[A] inactive

[Q] Can you look up the reported call for O=S(=O)(F)C(F)(F)C(F)(F)C(F)(F)C(F)(F)C(F)(F)C(F)(F)C(F)(F)C(F)(F)F for me?
[A] inactive

[Q] Given Cc1ccc(O)cc1C , state the outcome it received in this test.
[A] inactive
